- system_tested: T1, AFP158/HLA-A*02:01 complex (human)
- T1 construct: flowed over the chip in SPR; also called AFP158 pro
- assay_comment: SPR, scFv captured, pMHC in flow;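 also: complex injected at several concentrations over crude scFv, association then running-buffer dissociation, KD estimated from kinetic on- and off-rate constants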
assay_metric: Kd (nM)

INSERT INTO results (binder, uom, recorded_number) VALUES
  ('LH98P (scFv, AS170036 VL1VH1 scFv mutein; also called AS170036 VL1VH1-VLH98P) scFv: QSALTQPRSVSGSPGQSVTISCAGTSSDVGSENYVSWYQQHPGKAPKLMIYQVNKRASGVPDRFSGSKSGNTASLTISGLQAEDEADYYCASYRSSDPNIVFGGGTKLTVLGGGGSGGGGSGGGGSEVQLVESGGGLVQPGGSLRLSCAASGFTFSSYAMSWVRQAPGKGLEWVSTINSGTGSPYYADSVKGRFTISRDNSKNTLYLQMNSLRAEDTAVYYCAKNFFDGSWFLGPPAMDYWGQGTLVTVSSHHHHHH', 'nM', 70),
  ('LY34H (scFv, AS170036 VL1VH1 scFv mutein) scFv: QSALTQPRSVSGSPGQSVTISCAGTSSDVGSENHVSWYQQHPGKAPKLMIYQVNKRASGVPDRFSGSKSGNTASLTISGLQAEDEADYYCASYRSSDHNIVFGGGTKLTVLGGGGSGGGGSGGGGSEVQLVESGGGLVQPGGSLRLSCAASGFTFSSYAMSWVRQAPGKGLEWVSTINSGTGSPYYADSVKGRFTISRDNSKNTLYLQMNSLRAEDTAVYYCAKNFFDGSWFLGPPAMDYWGQGTLVTVSSHHHHHH', 'nM', 540),
  ('LY93M (scFv, AS170036 VL1VH1 scFv mutein) scFv: QSALTQPRSVSGSPGQSVTISCAGTSSDVGSENYVSWYQQHPGKAPKLMIYQVNKRASGVPDRFSGSKSGNTASLTISGLQAEDEADYYCASMRSSDHNIVFGGGTKLTVLGGGGSGGGGSGGGGSEVQLVESGGGLVQPGGSLRLSCAASGFTFSSYAMSWVRQAPGKGLEWVSTINSGTGSPYYADSVKGRFTISRDNSKNTLYLQMNSLRAEDTAVYYCAKNFFDGSWFLGPPAMDYWGQGTLVTVSSHHHHHH', 'nM', 230);
